- measured.target: T1, full-length human GPC3 (human, UniProt P51654 25-554)
- T1 construct: On CHO (DXB11) or SK-HEP-1 (SK-03) transfectants; also used here for the GPC3 on the hepatoma lines HepG2 and HuH-7; also called human glypican 3
- T1 sequence (P51654 25-554 limits assumed): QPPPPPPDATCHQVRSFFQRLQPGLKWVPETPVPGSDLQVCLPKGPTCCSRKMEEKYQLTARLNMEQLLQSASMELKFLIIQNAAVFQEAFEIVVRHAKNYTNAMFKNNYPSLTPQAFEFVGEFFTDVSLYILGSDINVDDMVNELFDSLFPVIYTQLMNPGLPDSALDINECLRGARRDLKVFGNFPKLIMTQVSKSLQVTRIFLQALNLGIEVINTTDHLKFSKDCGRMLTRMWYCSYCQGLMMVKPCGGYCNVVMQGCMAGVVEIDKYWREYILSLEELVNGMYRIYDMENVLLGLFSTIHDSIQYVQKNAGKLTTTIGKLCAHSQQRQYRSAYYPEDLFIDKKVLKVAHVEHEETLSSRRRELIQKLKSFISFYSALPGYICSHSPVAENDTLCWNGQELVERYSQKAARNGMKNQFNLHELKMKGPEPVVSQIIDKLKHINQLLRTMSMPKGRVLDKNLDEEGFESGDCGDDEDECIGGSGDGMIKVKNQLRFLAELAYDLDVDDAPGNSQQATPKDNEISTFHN
- assay: flow cytometry, antibody at 5 µg/mL, CHO cells expressing human GPC3 (column CHO/human GPC3)
Answer each item with its documented FACS X-mode value of the histogram.

Any idea what its FACS X-mode value of the histogram is? The binder is L9G11 (antibody, V domains shown, Mouse monoclonal from hybridoma) VH: QVQLQQPGAELVKPGASVKLSCKASGYTFTSYWMHWVKQRPGQGLEWIGTIDPSDSETHYNLQFKDTATLTVDKSSSTAYMQLSSLTSEDSAVYYCIRGAFYSSYSYWAWFAYWGQGTLVTVSA VL: DIVLTQSPTSLAVSLGQSVTISCRASESVEYYGTSLMQWYQQKPGQPPKLLIYGASNVESGVPARFSGSGSGTDFSLNIHPVEEDDIAMYFCQQSRKVPYTFGSGTKLEIK
29

Any idea what its FACS X-mode value of the histogram is? The binder is M5B9 (antibody, V domains shown, Mouse monoclonal from hybridoma) VH: EVQLQQSGTVLARPGASVKMSCKASGYTFTGYWMHWVKQRPGQGLEWIGAIYPGNSDTNYNQKFKGKAKLTAVTSASTAYMELSSLTNEDAAVYHCTRSGDLTGGLAYWGQGTLVTVSA VL: DIVMTQAAFSNPVTLGTSASISCRSSKSLLHSNGITYLYWFLQKPGQSPQLLIYQMSNLASGVPDRFSSSGSGTDFTLRISRVEAEDVGVYYCAQNLELPYTFGSGTKLEIK
25

Any idea what its FACS X-mode value of the histogram is? The binder is M18D4 (antibody, human IgG1, kappa, V domains shown, Mouse monoclonal from hybridoma) VH: EVQLQQSGTVLARPGASVKMSCKASGYTFTGYWMRWVKQRPGQGLEWIGAIYPGNSDTTYNQKFKGKAKLTAVTSVSTAYMELSSLTNEDSAVYYCSRSGDLTGGFAYWGQGTLVTVST VL: DIVMTQAAFSNPVTLGTSTSISCRSSKSLLHSNGITYLYWYLQKPGQSPQLLIYQMSNLASGVPDRFSSSGSGTDFTLRISRVEAEDVGVYYCAQNLELPYTFGSGTKLEIKR
22
